System: S. aureus ATCC 13709
Assay: MIC, antibacterial potency, S. aureus
Format: cell-based
Details: S. aureus (SA); in µg/mL
OUTCOME_MEASURE: MIC, SA

CCc1[nH]c2nc(Oc3cccc(C#N)c3)nc(C(C)(NO)NO)c2c1Cl [700,954] : >32
CCc1[nH]c2nc(Oc3ccc4cccnc4c3)nc(N3CC4C(N)C4C3)c2c1Cl (stereo not shown) [701,055] : >64

Inquiry: Which MIC, SA reading was recorded for the compound CCc1[nH]c2nc(Sc3ccc4[nH]c(C(F)(F)F)cc(=O)c4c3)nc(N3CC[C@@H](N)C3)c2c1Cl [700,918] ?
Reply text: 2

Inquiry: Which MIC, SA reading was recorded for the compound CCc1[nH]c2nc(Sc3cc(F)cc(F)c3C#N)nc(N3CC[C@@H](N)C3)c2c1Cl [700,848] ?
Reply text: 64

Numbers sourced from patent US10047105B2.
